Target: EED (1-441)-His protein (Homo sapiens (Human), UniProt O75530)
pIC50: −log10 of the molar value.
Readout name: pIC50

(I) Fc1ccncc1-c1cnc(NCc2cccc3c2CCO3)n2cnnc12
(II) CN1CCN(c2ccc(-c3cnc(NCc4cccc5occc45)n4cnnc34)cc2)CC1
Q: Returns: the label, I or II , whose recorded pIC50 is the lower number. Your answer should be the label of the entry you select.
A: II

(I) Fc1ccc2c(c1CNc1ncc(-c3cnccc3Cl)c3nncn13)CCO2
(II) Cc1nc(OC(C)C)ncc1-c1cnc(NCc2c(F)ccc3c2CCO3)n2cnnc12
Q: Returns: the label, I or II , whose recorded pIC50 is the lower number. Your answer should be the label of the entry you select.
A: I
(I: 8.00, II: 8.39)

====

Target: wild type PRC2 (wtPRC2) complex (Homo sapiens (Human), UniProt O75530)
Sequence (O75530 whole entry): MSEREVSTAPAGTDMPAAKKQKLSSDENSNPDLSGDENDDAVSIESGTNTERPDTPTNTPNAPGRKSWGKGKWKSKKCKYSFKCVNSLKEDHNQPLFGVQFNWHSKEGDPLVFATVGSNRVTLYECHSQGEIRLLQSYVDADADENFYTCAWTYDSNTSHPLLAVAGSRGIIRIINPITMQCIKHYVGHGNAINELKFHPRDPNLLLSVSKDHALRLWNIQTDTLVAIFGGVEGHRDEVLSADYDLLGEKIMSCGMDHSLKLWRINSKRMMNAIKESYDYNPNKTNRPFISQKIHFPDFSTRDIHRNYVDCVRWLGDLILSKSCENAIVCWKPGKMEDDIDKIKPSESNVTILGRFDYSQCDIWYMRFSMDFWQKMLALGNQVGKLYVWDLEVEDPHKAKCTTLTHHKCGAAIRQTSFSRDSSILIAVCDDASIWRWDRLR
Sequence (Q15910 whole entry partner): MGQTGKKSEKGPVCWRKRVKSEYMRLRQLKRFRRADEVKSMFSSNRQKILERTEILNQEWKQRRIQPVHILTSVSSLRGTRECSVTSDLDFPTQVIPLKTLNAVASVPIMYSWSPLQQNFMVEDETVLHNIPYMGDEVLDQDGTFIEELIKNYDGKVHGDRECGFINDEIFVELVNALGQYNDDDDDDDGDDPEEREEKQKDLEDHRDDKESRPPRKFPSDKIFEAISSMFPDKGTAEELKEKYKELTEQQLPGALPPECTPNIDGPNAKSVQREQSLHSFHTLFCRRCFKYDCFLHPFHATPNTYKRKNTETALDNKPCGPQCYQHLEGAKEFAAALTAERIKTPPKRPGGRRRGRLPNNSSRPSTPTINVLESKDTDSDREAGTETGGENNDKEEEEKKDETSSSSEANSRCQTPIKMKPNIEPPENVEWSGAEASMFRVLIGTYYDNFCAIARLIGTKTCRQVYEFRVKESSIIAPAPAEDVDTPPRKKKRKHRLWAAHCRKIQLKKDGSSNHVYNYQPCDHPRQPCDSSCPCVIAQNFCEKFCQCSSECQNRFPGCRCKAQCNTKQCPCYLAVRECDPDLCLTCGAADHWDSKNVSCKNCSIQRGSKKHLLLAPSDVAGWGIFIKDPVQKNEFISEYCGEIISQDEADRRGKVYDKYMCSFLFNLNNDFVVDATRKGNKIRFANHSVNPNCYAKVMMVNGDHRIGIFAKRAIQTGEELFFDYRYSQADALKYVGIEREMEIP
Sequence (Q15022 whole entry partner): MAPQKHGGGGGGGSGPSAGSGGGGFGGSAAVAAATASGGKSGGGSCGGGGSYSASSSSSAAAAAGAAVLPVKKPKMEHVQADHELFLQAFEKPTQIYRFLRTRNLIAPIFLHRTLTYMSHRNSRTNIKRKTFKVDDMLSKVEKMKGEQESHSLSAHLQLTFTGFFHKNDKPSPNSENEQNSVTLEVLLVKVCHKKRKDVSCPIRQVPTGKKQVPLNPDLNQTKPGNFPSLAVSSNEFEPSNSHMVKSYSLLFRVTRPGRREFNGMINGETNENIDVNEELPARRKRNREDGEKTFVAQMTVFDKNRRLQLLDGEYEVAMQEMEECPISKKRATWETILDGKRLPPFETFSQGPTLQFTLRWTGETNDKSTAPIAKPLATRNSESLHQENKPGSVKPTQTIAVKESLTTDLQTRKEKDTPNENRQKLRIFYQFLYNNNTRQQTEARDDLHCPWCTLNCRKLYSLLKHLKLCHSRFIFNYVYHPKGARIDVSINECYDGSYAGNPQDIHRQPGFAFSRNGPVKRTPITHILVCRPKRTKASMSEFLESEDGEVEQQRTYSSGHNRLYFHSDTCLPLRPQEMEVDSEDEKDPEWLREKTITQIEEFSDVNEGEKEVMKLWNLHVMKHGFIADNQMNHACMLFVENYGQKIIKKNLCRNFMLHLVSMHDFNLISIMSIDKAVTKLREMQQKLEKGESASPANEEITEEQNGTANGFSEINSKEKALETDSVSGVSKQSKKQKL
Assay: EED LC-MS assay
Settings: read-out: (b) IC50 EED LC-MS Qualified
pIC50: −log10 of the molar value.
Readout name: pIC50

# count of solved cases: 6
Molecule | pIC50
Cn1nccc1-c1cnc(NCc2c(F)ccc3c2CCO3)n2cnnc12 [Example 169] | 8.18
COc1ccc(-c2cnc(NCc3c(F)ccc4c3CCO4)n3cnnc23)cn1 [Example 142] | 8.29
CN(C)C(=O)c1ccc(-c2cnc(NCc3cccc4c3CCO4)n3cnnc23)cn1 [Example 95] | 7.89
Cc1cnccc1-c1cnc(NCc2c(F)ccc3c2CCO3)n2cnnc12 [Example 163] | 7.96
FC1(F)CCN(CCc2ccc(-c3cnc(NCc4cccc5c4CCO5)n4cnnc34)cn2)C1 [Example 100] | 7.50
Cc1cc(C(=O)N(C)C)ncc1-c1cnc(NCc2c(F)ccc3c2CCO3)n2cnnc12 [Example 131] | 7.97

(A) CS(=O)(=O)c1cccc(-c2cnc(NCc3cccc4c3CCO4)n3cnnc23)c1 [Example 27]
(B) CC1CN(c2ccc(-c3cnc(NCc4cccc5c4CCO5)n4cnnc34)cn2)CC(C)O1 (centres unmarked) [Example 74]
Q: Higher pIC50 between A and B ? Your answer should be the label of the entry you select.
A: A

====

Target: wild type PRC2 (wtPRC2) complex (Homo sapiens (Human), UniProt O75530)
Test: EED LC-MS assay
Settings: read-out: (b) IC50 EED LC-MS Qualified
pIC50: −log10 of the molar value.
Readout name: pIC50

# count of solved cases: 4
Compound | pIC50
Fc1ccc2c(c1CNc1ncc(-c3cncnc3C(F)F)c3nncn13)CCO2 [Example 191] | 7.88
Cc1c(-c2cnc(NCc3c(F)ccc4c3CCO4)n3cnnc23)ccc[n+]1[O-] [Example 204] | 7.71
Cc1cnc(C(F)(F)F)cc1-c1cnc(NCc2c(F)ccc3c2CCO3)n2cnnc12 [Example 184] | 7.88
CN(C)S(=O)(=O)c1ccc(-c2cnc(NCc3cccc4c3CCO4)n3cnnc23)cc1 [Example 15] | 7.69

(a) CN(C)c1cc(F)c(-c2cnc(NCc3cccc4c3CCO4)n3cnnc23)cn1 [Example 112]
(b) Cc1nn(CCO)c(C)c1-c1cnc(NCc2cccc3c2CCO3)n2cnnc12 [Example 67]
(c) c1cc(CNc2ncc(-c3ccc(N4CCOCC4)nc3)c3nncn23)c2c(c1)OCC2 [Example 69]
(d) Cc1cc(OC(F)F)ncc1-c1cnc(NCc2c(F)ccc3c2CCO3)n2cnnc12 [Example 197]
Q: Put the items in sequence by pIC50, from largest down. When ranking, write the labels in the order the request describes.
A: d, a, b, c
(d: 8.24, a: 7.75, b: 7.04, c: 6.42)

====

Target: wild type PRC2 (wtPRC2) complex (Homo sapiens (Human))
Assay: EED LC-MS assay
Conditions: read-out: (b) IC50 EED LC-MS Qualified
Readout name: IC50 (nM)

# count of solved cases: 3
Line notation | Data value
OC1CN(c2ccc(-c3cnc(NCc4cccc5c4CCO5)n4cnnc34)cn2)C1 | 17.2
Cc1nn(C(C)C)c(C)c1-c1cnc(NCc2cccc3c2CCO3)n2cnnc12 | 14.8
Cc1ccncc1-c1cnc(NCc2c(F)ccc3c2CCO3)n2cnnc12 | 18.2

(a) Cc1nc(N)ccc1-c1cnc(NCc2c(F)ccc3c2CCO3)n2cnnc12
(b) c1cc(CNc2ncc(-c3cncnc3)c3nncn23)c2c(c1)OCC2
Q: Higher IC50 between a and b ? Your answer should be the label of the entry you select.
A: b

====

Target: wild type PRC2 (wtPRC2) complex (Homo sapiens (Human))
Test: EED LC-MS assay
Conditions: read-out: (b) IC50 EED LC-MS Qualified
Readout name: IC50 (nM)

# count of solved cases: 7
Molecule | IC50 (nM)
CNc1cc(F)c(-c2cnc(NCc3cccc4c3CCO4)n3cnnc23)cn1 [Example 111] | 17.4
Cc1ccc(-c2cnc(NCc3c(F)ccc4c3CCO4)n3cnnc23)c(C(F)F)n1 [Example 201] | 7.3
Fc1ccc2c(c1CNc1ncc(-n3ccnc3)c3nncn13)CCO2 [Example 240] | 14.3
COCc1ncc(-c2cnc(NCc3cccc4c3CCO4)n3cnnc23)cc1C [Example 83] | 22.8
Fc1ccc2c(c1CNc1ncc(-c3ccc(C4CC4)nc3)c3nncn13)CCO2 [Example 119] | 6.6
FCc1ncccc1-c1cnc(NCc2c(F)ccc3c2CCO3)n2cnnc12 [Example 193] | 13
O=C1CCCN1c1cncc(-c2cnc(NCc3cccc4c3CCO4)n3cnnc23)c1 [Example 87] | 83.9

(A) Fc1ccc2c(c1CNc1ncc(-c3ccc(N4CCSCC4)nc3)c3nncn13)CCO2 [Example 91]
(B) N#Cc1ccccc1-c1cnc(NCc2c(F)ccc3c2CCO3)n2cnnc12 [Example 121]
Q: Higher IC50 between A and B ? Your answer should be the label of the entry you select.
A: B

====

Target: EED (1-441)-His protein (Homo sapiens (Human))
Readout name: IC50 (nM)

# count of solved cases: 2
Compound | Readout name | Data value
O=S(=O)(c1ccc(-c2cnc(NCc3cccc4c3CCO4)n3cnnc23)cc1)C1CCNCC1 | IC50 | 8.1
CC1CN(c2ccc(-c3cnc(NCc4cccc5c4CCO5)n4cnnc34)cn2)CC(C)O1 (stereo not shown) | IC50 | 89.6

(1) Cc1cc(C(=O)N(C)C)ncc1-c1cnc(NCc2c(F)ccc3c2CCO3)n2cnnc12
(2) OC1CN(c2ccc(-c3cnc(NCc4cccc5c4CCO5)n4cnnc34)cn2)C1
Q: Returns: the label, 1 or 2 , whose recorded IC50 is the lower number. Your answer should be the label of the entry you select.
A: 1
(1: 4 nM, 2: 12.9 nM)

====

Biological target: wild type PRC2 (wtPRC2) complex (Homo sapiens (Human))
Experiment: EED LC-MS assay
Conditions: read-out: (b) IC50 EED LC-MS Qualified
pIC50: −log10 of the molar value.
Readout name: pIC50

# count of solved cases: 4
Molecule | Readout name | Data value
Cc1nc(OC(C)C)ncc1-c1cnc(NCc2c(F)ccc3c2CCO3)n2cnnc12 [Example 9] | pIC50 | 8.10
OCCN1CCN(c2ccc(-c3cnc(NCc4cccc5c4CCO5)n4cnnc34)cn2)CC1 [Example 110] | pIC50 | 7.82
Cc1ncn(-c2cnc(NCc3c(F)ccc4c3CCO4)n3cnnc23)n1 [Example 238] | pIC50 | 7.84
Cc1nn(C)c(C)c1-c1cnc(NCc2c(F)ccc3c2CCO3)n2cnnc12 [Example 132] | pIC50 | 7.99

(A) Cc1cnn(-c2cnc(NCc3c(F)ccc4c3CCO4)n3cnnc23)c1 [Example 239]
(B) Fc1ccc2c(c1CNc1ncc(-c3cnn(C4CC4)c3)c3nncn13)CCO2 [Example 150]
Q: Higher pIC50 between A and B ? Your answer should be the label of the entry you select.
A: B

====

Target: wild type PRC2 (wtPRC2) complex (Homo sapiens (Human))
Experiment: EED LC-MS assay
Settings: read-out: (b) IC50 EED LC-MS Qualified
pIC50: −log10 of the molar value.
Readout name: pIC50

# count of solved cases: 3
Molecule | pIC50
Fc1ccncc1-c1cnc(NCc2cccc3c2CCO3)n2cnnc12 [Example 85] | 7.59
c1cc(CNc2ncc(-c3ccncc3)c3nncn23)c2ccoc2c1 [Example 218] | 7.58
O=CN1CCCN(c2ccc(-c3cnc(NCc4cccc5c4CCO5)n4cnnc34)cn2)CC1 [Example 113] | 7.80

(a) CN1CCN(c2cc(-c3cnc(NCc4cccc5occc45)n4cnnc34)ccn2)CC1 [Example 212]
(b) CC(O)c1ccc(-c2cnc(NCc3cccc4c3CCO4)n3cnnc23)cn1 (stereo not shown) [Example 84]
Q: Higher pIC50 between a and b ? Your answer should be the label of the entry you select.
A: b
(b: 7.89, a: 7.47)

(a) CN1CCN(c2cc(-c3cnc(NCc4cccc5c4CCO5)n4cnnc34)ccn2)CC1 [Example 18]
(b) COc1ncc(-c2cnc(NCc3cccc4c3CCO4)n3cnnc23)cn1 [Example 54]
(c) CN(C)C(=O)c1ccc(-c2cnc(NCc3cccc4c3CCO4)n3cnnc23)cc1 [Example 42]
(d) O=C(c1ccc(-c2cnc(NCc3cccc4occc34)n3cnnc23)cc1)N1CCCC1 [Example 216]
Q: Put the items in sequence by pIC50, from largest down. When ranking, write the labels in the order the request describes.
A: a, b, c, d
(a: 7.55, b: 7.26, c: 7.06, d: 6.74)
